TESTED_ON: UniProt Q72547
TEST_DETAILS: In vitro inhibitory activity against HIV-1 reverse transcriptase at 100 uM
Listed next: entries and their corresponding inhibition.
PARAMETER_MEASURED: inhibition (%)

smiles_record=COc1ccc2[nH]c(C(=O)N3CCN(c4ncccc4NC(C)C)CC3)cc2c1 result_value=97
smiles_record=CCNc1cccnc1N1CCN(C(=O)c2cc(C)c(OC)c(C)c2)CC1 result_value=69
smiles_record=O=C(c1cc2ccccc2[nH]1)N1CCN(c2ncccc2NCC(F)(F)F)CC1 result_value=40

----------
TEST_DETAILS: Selective index is the ratio of inhibitory concentrations of cellular DNA polymerase alpha to HIV-1 reverse transcriptase
PARAMETER_MEASURED: Selectivity index

compound=COc1ccc2[nH]c(C(=O)N3CCN(c4ncccc4NC(C)(C)C)CC3)cc2c1 reported_relation=> result_value=83
compound=CCNc1cccnc1N1CCN(C(=O)c2cc3cc(F)ccc3[nH]2)CC1 reported_relation== result_value=220
compound=CCNc1cccnc1N1CCN(Cc2cc(C)c(OC)c(C)c2)CC1 reported_relation== result_value=30
compound="CCNc1cccnc1N1CCN(C(=O)c2cc3cc(OC)ccc3[nH]2)CC1.CS(=O)(=O)O [ATEVIRDINE SULPHATE]" reported_relation== result_value=200
